# Test system: KM12 colon
# methodSummary: NCI-60 one-dose screen, 48 h
# conditionInfo: 10 µM unless noted
# Method: Growth inhibition of the KM12 human tumor cell line is measured as a screen for anti-cancer activity. Cells are grown in 96 well plates and exposed to the test compound for 48 hours. Compounds are tested at a single concentration, which is 10^-5 M for most compounds. The reported endpoint is percent growth (GI% or GIPRCNT), where numbers from 0 - 100% represent growth inhibition, and numbers from -100% - 0 represent cell death. For example, a value of 40 represents 60% growth inhibition. […]
About 83,000 compounds went through this panel and 20% of them were active in at least one assay; those are over-represented in the sample as a whole. Active and inactive are the calls of the source. How the source made its calls: active means growth percent below 10; inactive means the rest.
Outcomes: 1 for active, 0 for inactive

INSERT INTO assay_data (molecule, labelclass) VALUES
  ('COC(=O)[C@H](Cc1c[nH]c2ccccc12)NC(=O)[C@@H](OC)[C@@H]1Cc2cc3cc(OC4CC(OC5CC(O)C(O)C(C)O5)C(O)C(C)O4)c(C)c(O)c3c(O)c2C(=O)[C@H]1OC1CC(OC2CC(OC3CC(C)(O)C(O)C(C)O3)C(O)C(C)O2)C(O)C(C)O1 (stereo not given in full)', 1),
  ('COc1cccc(/C=C/[N+](=O)[O-])c1', 0),
  ('O=C1C2CC=CCC2C(=O)N1SC(Cl)(Cl)Cl (stereo not given)', 0),
  ('Cc1ccc(S(=O)(=O)F)cc1C(=O)O', 0),
  ('COC(=O)N[C@H]1CCc2c(Br)c(OC)c(OC)c(OC)c2-c2ccc(SC)c(=O)cc21', 1),
  ('CC1CCCC(C[N+](C)(C)C)C1=O (stereo not given)', 0),
  ('ClCCN(CCCl)c1nc(Cl)c(C2CC(c3ccccc3)=NN2c2cc(Cl)cc(Cl)c2)s1 (stereo not given)', 0),
  ('CCCCCCCCCCCCCCCCCC1OC[C@H](COC(=O)O[C@@H](C(=O)O[C@H]2C[C@@]3(O)[C@@H](OC(=O)c4ccccc4)[C@@H]4[C@]5(OC(C)=O)CO[C@@H]5C[C@H](O)[C@@]4(C)C(=O)[C@H](OC(C)=O)C(=C2C)C3(C)C)[C@@H](NC(=O)c2ccccc2)c2ccccc2)O1 (stereo not given in full)', 0),
  ('CN1C(=O)C(=Cc2cn(Cc3ccccc3)c3ccccc23)C(=O)N(C)C1=O', 0),
  ('O=C(CCCCCNC1=CC(=O)c2ccccc2C1=O)NCCC[Te]c1ccccc1', 1);

* * *

# Tested on: 786-0 renal
# methodSummary: NCI-60 one-dose screen, 48 h (100 = growth as untreated, 0 = no growth, -100 = all killed)
# conditionInfo: 10 µM unless noted
# Experimental: Cells are grown in 96 well plates and exposed to the test compound for 48 hours. Compounds are tested at a single concentration, which is 10^-5 M for most compounds. The reported endpoint is percent growth (GI% or GIPRCNT), where numbers from 0 - 100% represent growth inhibition, and numbers from -100% - 0 represent cell death. For example, a value of 40 represents 60% growth inhibition. A value of 0 means no net growth occurred over the course of the experiment. […]
About 83,000 compounds went through this panel and 20% of them were active in at least one assay; those are over-represented in the sample as a whole.
Threshold rule: growth greater than or equal to 20% is Condition met; below that, Condition not met.

INSERT INTO measurements (compound, labelclass) VALUES
  ('CC(=O)OC1C(OC/C2=C/C3[C@@H](C(C)C)CC=C(C)[C@@H]3CC(OC(=O)/C=C/c3cn(C)cn3)[C@]3(C)C=C[C@@]2(O)O3)OCC(O)C1O (stereo partly specified)', 'Condition not met'),
  ('CC(C)CCC(=O)O[C@H]1CC[C@H]2[C@@H]3CCC4=CC(=O)CC[C@]4(C)[C@H]3CC[C@]12C', 'Condition met'),
  ('Cc1c(O)c(CN(CCCl)CCCl)cc(CN(CCCl)CCCl)c1O', 'Condition met'),
  ('CC12CCC(O)CC1=CCC1C2CCC2(C)C(O)CCC12 (stereo unspecified)', 'Condition met'),
  ('COP(=S)(N1CC1)N1CC1', 'Condition met'),
  ('COC(=O)[C@@H](C)C[C@H](Cc1ccccc1)NC(=O)c1csc([C@@H](C[C@H](C(C)C)N(C)C(=O)C2(NC(=O)[C@H]3CCCCN3C)CCC2)OC(C)=O)n1', 'Condition met');
